What pKd was measured for each of the following?
- experimental-system: T1, hANG2-His (human, UniProt O15123 19-496, limits assumed)
- T1 construct: also called 人源ANG2; ANGPT2; not shown: C-terminal His tag
- T1 sequence (looked up): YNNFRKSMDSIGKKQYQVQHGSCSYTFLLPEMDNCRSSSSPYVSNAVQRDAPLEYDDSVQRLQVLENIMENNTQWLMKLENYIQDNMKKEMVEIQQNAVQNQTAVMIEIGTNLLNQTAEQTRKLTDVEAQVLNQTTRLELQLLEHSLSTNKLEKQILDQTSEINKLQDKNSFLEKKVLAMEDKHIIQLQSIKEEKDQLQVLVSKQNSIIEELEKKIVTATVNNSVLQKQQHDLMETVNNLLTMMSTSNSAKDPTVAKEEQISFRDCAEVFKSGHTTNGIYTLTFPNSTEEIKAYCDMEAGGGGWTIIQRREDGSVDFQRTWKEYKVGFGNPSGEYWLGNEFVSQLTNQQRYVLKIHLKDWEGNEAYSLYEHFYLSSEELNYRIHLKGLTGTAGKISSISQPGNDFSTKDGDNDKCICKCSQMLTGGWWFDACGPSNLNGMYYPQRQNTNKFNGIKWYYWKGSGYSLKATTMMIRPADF
- protocol-description: BLI (Gator), antibody captured on sensor, hANG2-His 100/50/25 nM
Numbers only, as −log10 of the molar value.

These recorded examples may help you get a feel for the data.
抗体78A74-35 (antibody, IgG1, V domains shown) VH: QVQLVESGGGLVKPGGSLRLSCAASGFTFSSYSMNWVRQAPGKGLEWVAVISYDGSNKYYADSVKGRFTISRDNSKNTLYLQMNSLRAEDTAVYYCAKATLDGYTAGYYYGMDVWGQGTTVTVSS VL: EIVLTQSPATLSLSPGERATLSCRASQSVSSYLAWYQQKPGQAPRLLIYDASNRATGIPARFSGSGSGTDFTLTISSLEPEDFAVYYCQQRSNWPPAMTFGQGTKVEIK; 8.82
抗体78A74-21 (antibody, IgG1, V domains shown) VH: QVQLVESGGGLVKPGGSLRLSCAASGFTFSSYSMNWVRQAPGKGLEWVAVISYDGSNKYYADSVKGRFTISRDNSKNTLYLQMNSLRAEDTAVYYCAKETLDGYTAGYYYGMDVWGQGTTVTVSS VL: EIVLTQSPATLSLSPGERATLSCRASQSVGSYLAWYQQKPGQAPRLLIYDASNRATGIPARFSGSGSGTDFTLTISSLEPEDFAVYYCQQRSNGPPEWTFGQGTKVEIK; 9.16

--- query ---
Look up and state reported pKd for 抗体78A74-36 (antibody, IgG1, V domains shown) VH: QVQLVESGGGLVKPGGSLRLSCAASGFTFSSYSMNWVRQAPGKGLEWVAVISYDGSNKYYADSVKGRFTISRDNSKNTLYLQMNSLRAEDTAVYYCAKATLDGYTAGYYYGMDVWGQGTTVTVSS VL: EIVLTQSPATLSLSPGERATLSCRASQSVSSYLAWYQQKPGQAPRLLIYDASNRATGIPARFSGSGSGTDFTLTISSLEPEDFAVYYCQQRTMWPPEWTFGQGTKVEIK
8.88

Origin of measurements: patent CN116178540A
